Values compiled from patent US20260317319A1.

Tested on: C57BL/6 mice
experimental.details: Automated mouse head twitch response (HTR) assay (video tracking)
Format: in vivo
experimental.context: sc, dose giving highest peak HTR/min (35*, 43*, 44*: dose that resulted in the least suppression)
result.type: Most Efficacious Dose for Peak HTR/min

{"compound.string": "CCC(CC)NC(=O)[C@@H]1C=C2c3cccc4[nH]c(Br)c(c34)C[C@H]2N(C)C1", "test.target": "C57BL/6 mice", "endpoint.result": "(3.2) mg/kg, sc"}
{"compound.string": "CCN(CC)C(=O)[C@@H]1C=C2c3cccc4[nH]cc(c34)C[C@H]2N(Cc2cccc(OC)c2)C1", "test.target": "C57BL/6 mice", "endpoint.result": "(0.1) mg/kg, sc"}
{"compound.string": "CCN(CC)C(=O)[C@@H]1C=C2c3cccc4[nH]cc(c34)C[C@H]2N(Cc2ccccc2)C1", "test.target": "C57BL/6 mice", "endpoint.result": "(0.1) mg/kg, sc"}
{"compound.string": "C=CCN1C[C@H](C(=O)N[C@H](C)CC)C=C2c3cccc4[nH]cc(c34)C[C@H]21", "test.target": "C57BL/6 mice", "endpoint.result": "(3.2) mg/kg, sc"}
{"compound.string": "CCN(CC)C(=O)[C@@H]1C=C2c3cccc4[nH]c(Br)c(c34)C[C@H]2N(C)C1", "test.target": "C57BL/6 mice", "endpoint.result": "(0.1) mg/kg, sc"}

----------
test.target: 5-HT2B receptor (Homo sapiens, UniProt P41595)
Construct: expressed in transfected cells; host or cells: HEK293, stably transfected
Sequence (P41595 whole entry): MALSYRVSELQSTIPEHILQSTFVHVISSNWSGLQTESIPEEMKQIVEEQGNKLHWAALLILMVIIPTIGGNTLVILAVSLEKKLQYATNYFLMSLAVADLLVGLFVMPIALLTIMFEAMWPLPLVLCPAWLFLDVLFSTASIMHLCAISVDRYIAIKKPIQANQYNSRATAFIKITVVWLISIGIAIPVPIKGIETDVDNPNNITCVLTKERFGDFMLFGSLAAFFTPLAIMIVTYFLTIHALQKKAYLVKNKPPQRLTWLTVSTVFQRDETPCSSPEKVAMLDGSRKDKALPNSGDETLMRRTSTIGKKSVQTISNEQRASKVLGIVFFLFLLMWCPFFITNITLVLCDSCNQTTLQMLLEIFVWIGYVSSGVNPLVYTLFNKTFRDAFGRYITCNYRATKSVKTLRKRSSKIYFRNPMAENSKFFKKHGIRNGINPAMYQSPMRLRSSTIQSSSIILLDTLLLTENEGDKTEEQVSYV
experimental.details: cell-based
Assay type: cell-based
experimental.context: HEK293, agonist, Ca2+ flux, HEK293, max dose; read-out: 5-HT2B % Act @ Max Dose
Procedure: Functional Assays at 5-HT2A, 5-HT2B, and 5-HT1A. Agonist activity at 5-HT2A, 5-HT2B, 5HT2C and 5-HT1A receptors was determined using a FLIPR Ca^2+ flux assay at WuXi AppTec (Hong Kong) Limited according to their standard protocols. […] 10 μL of references and compounds were then transferred from the compound plate into the cell plate and the fluorescent signal was read.
result.type: Emax (%)

{"molecule": "CCN(CC)C(=O)[C@@H]1C=C2c3cccc4[nH]cc(c34)C[C@H]2N(CCc2ccc(OC)cc2)C1", "result.type": "Emax", "endpoint.result": 1.73}
{"molecule": "CCC[C@@H](C)NC(=O)[C@@H]1C=C2c3cccc4[nH]cc(c34)C[C@H]2N(CCC)C1", "result.type": "Emax", "endpoint.result": 94.8}
{"molecule": "CC[C@@H](C)NC(=O)[C@H]1C=C2c3cccc4[nH]cc(c34)C[C@H]2N(C)C1", "result.type": "Emax", "endpoint.result": 6.87}
{"molecule": "CC[C@@H](C)NC(=O)[C@@H]1C=C2c3cccc4[nH]cc(c34)C[C@H]2N(Cc2ccccc2)C1", "result.type": "Emax", "endpoint.result": 0.88}
{"molecule": "CCCN1C[C@@H](C(=O)N[C@H](C)CC)C=C2c3cccc4[nH]cc(c34)C[C@H]21", "result.type": "Emax", "endpoint.result": 52.8}
{"molecule": "CCN(CC)C(=O)[C@@H]1C=C2c3cccc4[nH]cc(c34)C[C@H]2N(Cc2ccc(F)cc2)C1", "result.type": "Emax", "endpoint.result": 3.58}
{"molecule": "CCCN1C[C@H](C(=O)N(CC)CC)C=C2c3cccc4c3C(CN4)C[C@H]21 (mixture of isomers)", "result.type": "Emax", "endpoint.result": 111}

----------
experimental.details: in vitro
Type: in vitro ADME, mouse
experimental.context: MLM (male CD-1) 0.50 mg/mL, NADPH 1 mM, 1 μM compound, pH 7.4, 37° C., 60 min
Label scheme for Intrinsic clearance (Clint): L = under 200 µL/min/mg, M = from 200 µL/min/mg up to 800 µL/min/mg, H = 800 µL/min/mg and over

{"compound": "CCN(CC)C(=O)[C@@H]1C=C2c3cccc4[nH]cc(c34)C[C@H]2N(Cc2ccccc2OC)C1 [Compound 10]", "assigned.label": "H"}
{"compound": "CCN(CC)C(=O)[C@@H]1C=C2c3cccc4[nH]cc(c34)C[C@H]2N(Cc2ccccn2)C1 [Compound 22]", "assigned.label": "L"}
{"compound": "CCN(CC)C(=O)[C@@H]1C=C2c3cccc4[nH]cc(c34)C[C@H]2N(CCc2ccccc2OC)C1 [Compound 11]", "assigned.label": "H"}
{"compound": "CCN(CC)C(=O)[C@@H]1C=C2c3cccc4[nH]cc(c34)C[C@H]2N(CCc2cccc(OC)c2)C1 [Compound 20]", "assigned.label": "H"}
{"compound": "CCN(CC)C(=O)[C@@H]1C=C2c3cccc4[nH]cc(c34)C[C@H]2N(CCc2ccc(OC)cc2)C1 [Compound 21]", "assigned.label": "M"}
{"compound": "CCN(CC)C(=O)[C@@H]1C=C2c3cccc4[nH]cc(c34)C[C@H]2N(Cc2cccc(OC)c2)C1 [Compound 18]", "assigned.label": "M"}
{"compound": "CCN(CC)C(=O)[C@@H]1C=C2c3cccc4[nH]cc(c34)C[C@H]2N(Cc2ccccc2O)C1 [Compound 16]", "assigned.label": "H"}
{"compound": "[2H]C([2H])([2H])Oc1cccc(CN2C[C@H](C(=O)N(CC)CC)C=C3c4cccc5[nH]cc(c45)C[C@H]32)c1 [Compound 56]", "assigned.label": "M"}
{"compound": "CCN(CC)C(=O)[C@@H]1C=C2c3cccc4[nH]cc(c34)C[C@H]2N(CCc2ccccn2)C1 [Compound 23]", "assigned.label": "M"}
{"compound": "CCN(CC)C(=O)[C@@H]1C=C2c3cccc4[nH]cc(c34)C[C@H]2N(Cc2ccnc(OC)c2)C1 [Compound 79]", "assigned.label": "M"}
{"compound": "C[C@H]1C[C@H](C)N1C(=O)[C@@H]1C=C2c3cccc4[nH]cc(c34)C[C@H]2N(C)C1 [Int11]", "assigned.label": "L"}
{"compound": "CCN(CC)C(=O)[C@@H]1C=C2c3cccc4[nH]cc(c34)C[C@H]2N(Cc2ccc(OC)cc2)C1 [Compound 19]", "assigned.label": "L"}
{"compound": "CCN(CC)C(=O)[C@@H]1C=C2c3cccc4[nH]cc(c34)C[C@H]2NC1 [Compound 83]", "assigned.label": "L"}

----------
test.target: UniProt P28223
Sequence (P28223 whole entry): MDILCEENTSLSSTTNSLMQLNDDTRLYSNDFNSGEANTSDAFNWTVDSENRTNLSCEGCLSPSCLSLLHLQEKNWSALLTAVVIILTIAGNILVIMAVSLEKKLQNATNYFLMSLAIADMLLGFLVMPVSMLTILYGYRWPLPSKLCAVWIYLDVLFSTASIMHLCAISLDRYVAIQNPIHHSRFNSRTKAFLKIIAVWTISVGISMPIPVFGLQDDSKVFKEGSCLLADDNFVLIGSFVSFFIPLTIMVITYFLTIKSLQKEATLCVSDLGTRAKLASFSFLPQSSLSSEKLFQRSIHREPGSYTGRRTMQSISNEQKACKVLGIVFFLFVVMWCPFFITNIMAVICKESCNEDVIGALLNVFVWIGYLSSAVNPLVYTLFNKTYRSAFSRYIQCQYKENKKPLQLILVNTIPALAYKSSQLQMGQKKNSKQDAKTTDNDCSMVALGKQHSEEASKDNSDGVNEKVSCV
experimental.details: cell-based
Type: cell-based
Design: expressed in transfected cells; host or cells: HEK293, stably transfected
experimental.context: HEK293, agonist, Ca2+ flux, HEK293, max dose; read-out: 5-HT2A % Act @ Max Dose
Classification by Emax follows these ranges: bottom bin = under 70%, middle bin = from 70% up to 90%, top bin = 90% and over

{"molecule": "CCN(CC)C(=O)[C@@H]1C=C2c3cccc4[nH]cc(c34)C[C@H]2N(Cc2ccccc2C)C1", "test.target": "UniProt P28223", "assigned.label": "middle bin"}
{"molecule": "CN1C[C@H](C(=O)N(CCF)CCF)C=C2c3cccc4[nH]cc(c34)C[C@H]21", "test.target": "UniProt P28223", "assigned.label": "top bin"}
{"molecule": "CCN(CC)C(=O)[C@@H]1C=C2c3cccc4[nH]cc(c34)C[C@H]2N(Cc2ccncc2)C1", "test.target": "UniProt P28223", "assigned.label": "top bin"}
{"molecule": "C[C@H]1C[C@H](C)N1C(=O)[C@@H]1C=C2c3cccc4[nH]cc(c34)C[C@H]2N(Cc2ccccc2)C1", "test.target": "UniProt P28223", "assigned.label": "bottom bin"}
{"molecule": "CCN(CC)C(=O)[C@@H]1C=C2c3cccc4[nH]cc(c34)C[C@H]2N(Cc2ccc3ccccc3c2)C1", "test.target": "UniProt P28223", "assigned.label": "middle bin"}
{"molecule": "CCC(CC)NC(=O)[C@H]1C=C2c3cccc4[nH]cc(c34)C[C@H]2N(C)C1 [Int14a]", "test.target": "UniProt P28223", "assigned.label": "bottom bin"}
{"molecule": "CCN(CC)C(=O)[C@H]1C=C2c3cccc4[nH]cc(c34)C[C@H]2N(CC2CCCCC2)C1 [Compound 89a]", "test.target": "UniProt P28223", "assigned.label": "bottom bin"}
{"molecule": "CCC[C@@H](C)NC(=O)[C@@H]1C=C2c3cccc4[nH]cc(c34)C[C@H]2N(CCC)C1", "test.target": "UniProt P28223", "assigned.label": "top bin"}

----------
test.target: 5-HT1B receptor (Homo sapiens, UniProt P28222)
Construct: expressed in transfected cells
Sequence (P28222 whole entry): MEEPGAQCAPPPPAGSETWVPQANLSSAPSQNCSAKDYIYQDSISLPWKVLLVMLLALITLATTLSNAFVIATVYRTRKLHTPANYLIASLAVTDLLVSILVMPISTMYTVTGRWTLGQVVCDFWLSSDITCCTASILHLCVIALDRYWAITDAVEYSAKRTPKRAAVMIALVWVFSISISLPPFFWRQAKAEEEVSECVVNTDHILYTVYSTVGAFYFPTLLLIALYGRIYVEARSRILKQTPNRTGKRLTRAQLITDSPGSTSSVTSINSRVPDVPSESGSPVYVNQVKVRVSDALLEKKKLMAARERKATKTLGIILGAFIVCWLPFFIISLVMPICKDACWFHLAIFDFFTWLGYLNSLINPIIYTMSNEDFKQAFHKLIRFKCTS
experimental.details: cAMP accumulation functional assay at 5-HT1B
Type: cell-based
experimental.context: agonist, cAMP accumulation, max dose; read-out: 5-HT1B % Act @ Max Dose
result.type: Emax

{"compound": "CCC[C@@H](C)NC(=O)[C@@H]1C=C2c3cccc4[nH]c(Br)c(c34)C[C@H]2N(C)C1 [Compound 45]", "result.type": "Emax", "endpoint.result": "87.1%"}
{"compound": "CCCN1C[C@H](C(=O)N(CC)CC)C=C2c3cccc4c3C(CN4)C[C@H]21 (mixture of isomers) [Compound 36]", "result.type": "Emax", "endpoint.result": "97.5%"}
{"compound": "CCN(CC)C(=O)[C@@H]1C=C2c3cccc4[nH]cc(c34)C[C@H]2N(CCF)C1 [Compound 39]", "result.type": "Emax", "endpoint.result": "99%"}
{"compound": "CCN(CC)C(=O)[C@@H]1C=C2c3cccc4[nH]cc(c34)C[C@H]2N(Cc2cccc(O)c2)C1 [Compound 62]", "result.type": "Emax", "endpoint.result": "46.8%"}
{"compound": "C=CCN1C[C@H](C(=O)N2[C@@H](C)C[C@@H]2C)C=C2c3cccc4[nH]cc(c34)C[C@H]21 [Compound 27]", "result.type": "Emax", "endpoint.result": "96.9%"}
{"compound": "CCN(CC)C(=O)[C@@H]1C=C2c3cccc4[nH]cc(c34)C[C@H]2N(Cc2ccccc2O)C1 [Compound 16]", "result.type": "Emax", "endpoint.result": "90.1%"}
{"compound": "CCCN1C[C@H](C(=O)NC(CC)CC)C=C2c3cccc4[nH]cc(c34)C[C@H]21 [Compound 6]", "result.type": "Emax", "endpoint.result": "94.6%"}
{"compound": "CCN(CC)C(=O)[C@@H]1C=C2c3cccc4[nH]cc(c34)C[C@H]2N(CCc2ccc(OC)cc2)C1 [Compound 21]", "result.type": "Emax", "endpoint.result": "79.1%"}
{"compound": "CCN(CC)C(=O)[C@@H]1C=C2c3cccc4[nH]cc(c34)C[C@H]2N(CCCF)C1 [Compound 2]", "result.type": "Emax", "endpoint.result": "90%"}
{"compound": "CCN(CC)C(=O)[C@@H]1C=C2c3cccc4[nH]cc(c34)C[C@H]2N(Cc2ccc(OC)cc2)C1 [Compound 19]", "result.type": "Emax", "endpoint.result": "71.1%"}
{"compound": "CCNC(=O)[C@@H]1C=C2c3cccc4[nH]cc(c34)C[C@H]2N(Cc2cccc(OC)c2)C1 [Compound 63]", "result.type": "Emax", "endpoint.result": "45.7%"}
{"compound": "CCN(CC)C(=O)[C@@H]1C=C2c3cccc4[nH]cc(c34)C[C@H]2N(Cc2ccon2)C1 [Compound 70]", "result.type": "Emax", "endpoint.result": "17.8%"}
{"compound": "CCCN1C[C@H](C(=O)N2[C@@H](C)C[C@@H]2C)C=C2c3cccc4[nH]cc(c34)C[C@H]21 [Compound 4]", "result.type": "Emax", "endpoint.result": "96%"}
{"compound": "CCN(CC)C(=O)[C@@H]1C=C2c3cccc4[nH]cc(c34)C[C@H]2N(Cc2cccc(C#N)c2)C1 [Compound 76]", "result.type": "Emax", "endpoint.result": "93.4%"}
{"compound": "CCCN1C[C@H](C(=O)N(CC)CC)C=C2c3cccc4[nH]cc(c34)C[C@H]21 [Compound 1]", "result.type": "Emax", "endpoint.result": "96.6%"}
